Attribution: paper PMC6150346

# Measured target: extracellular domain (ECD, D1–D7) of VEGFR1 (Homo sapiens)
# Construct: VEGFR-1 D1-D7 (ECD domain)/Fc Chimera; purchased Bio-techne R&D, Abingdon, UK
# Sequence (P17948 27-758 limits assumed): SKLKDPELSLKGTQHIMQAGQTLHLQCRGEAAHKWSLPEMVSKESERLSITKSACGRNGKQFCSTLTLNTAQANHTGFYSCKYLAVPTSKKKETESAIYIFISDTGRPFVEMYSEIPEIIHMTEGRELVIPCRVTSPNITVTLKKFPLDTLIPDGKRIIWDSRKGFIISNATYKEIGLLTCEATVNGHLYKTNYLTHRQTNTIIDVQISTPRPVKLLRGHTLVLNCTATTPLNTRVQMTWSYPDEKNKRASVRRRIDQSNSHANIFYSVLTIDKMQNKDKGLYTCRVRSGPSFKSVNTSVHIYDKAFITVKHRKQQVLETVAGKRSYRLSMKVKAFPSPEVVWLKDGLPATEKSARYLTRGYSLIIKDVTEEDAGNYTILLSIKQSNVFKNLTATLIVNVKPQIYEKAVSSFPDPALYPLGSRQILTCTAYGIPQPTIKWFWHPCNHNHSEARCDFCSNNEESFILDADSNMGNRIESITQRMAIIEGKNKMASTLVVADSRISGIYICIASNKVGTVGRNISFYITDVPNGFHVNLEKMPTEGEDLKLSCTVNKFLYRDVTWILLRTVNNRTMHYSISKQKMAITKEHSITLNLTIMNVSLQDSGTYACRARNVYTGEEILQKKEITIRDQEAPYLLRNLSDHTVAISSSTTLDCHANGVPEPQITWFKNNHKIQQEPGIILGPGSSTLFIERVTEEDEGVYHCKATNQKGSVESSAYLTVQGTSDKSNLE
# Assay summary: Chemiluminescent competition (displacement) assay: biotinylated VEGF165 (VEGF-A) vs peptide on coated VEGFR1
# Format: binding
# Run parameters: dose–response displacement assay on VEGFR1; log(inhibitor) vs. response fit, GraphPad Prism; three experiments in triplicate; read-out: IC50 (95% Confident Interval), relative inhibitory concentration 50
Recorded endpoint: pIC50
// field semantics: pIC50 = negative decimal log of concentration (mol/L)

The cases that follow already have their pIC50 on record.
Substance	Recorded endpoint	Measured number
Ac-SSEEFARNIAAYN-NH2 [Compound 32]	pIC50	4.52
Ac-SSEEYARNWAAFN-NH2 [Compound 14]	pIC50	4.85
Ac-SSEEFARNWAAIN-NH2 [Compound 29]	pIC50	7.34
Ac-SSEEFARNWAAFN-NH2 [Compound 12]	pIC50	4.31
Ac-SSEEYARNWAAWN-NH2 [Compound 8]	pIC50	4.59

Q: Identify the measured pIC50 of Ac-SSEEWARNFAAFN-NH2 [Compound 10] for extracellular domain (ECD, D1–D7) of VEGFR1 (Homo sapiens).
A: 4.84

Q: Identify the measured pIC50 of Ac-SSEEWARNYAAFN-NH2 [Compound 16] for extracellular domain (ECD, D1–D7) of VEGFR1 (Homo sapiens).
A: 4.67
